The values you see were collected from the supplement of paper PMC10567573.

B1: FCHO1 (parent)
chain: FTSSPSPFSSSSPENVEDSGLDSP

Variants of: B1
Experiment: protein stability index of a GFP-peptide fusion (GPS, HEK-293T) (PSI 1-6); higher = more stable;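 further: lentivirally expressed fusions sorted by FACS into six bins by GFP to DsRed ratio, PSI derived from sequencing read proportions per bin multiplied by bin number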
Conditions: c terminus: a fixed tail appended
Kindly return yes (1) if reported protein stability index is no lower than 2; return no (0) if it is lower.

[[record]]
variantdescriptor = "T2Y"
classification = "yes (1)"

[[record]]
variantdescriptor = "E14R"
classification = "no (0)"

[[record]]
variantdescriptor = "G20V"
classification = "no (0)"

[[record]]
variantdescriptor = "D22Y"
classification = "yes (1)"

[[record]]
variantdescriptor = "E17T"
classification = "yes (1)"

[[record]]
variantdescriptor = "P7Y"
classification = "yes (1)"

[[record]]
variantdescriptor = "N15D"
classification = "yes (1)"

[[record]]
variantdescriptor = "D18C"
classification = "yes (1)"

[[record]]
variantdescriptor = "N15C"
classification = "yes (1)"

[[record]]
variantdescriptor = "F8I"
classification = "yes (1)"

[[record]]
variantdescriptor = "P13W"
classification = "no (0)"

[[record]]
variantdescriptor = "S6W"
classification = "yes (1)"

[[record]]
variantdescriptor = "S10Y"
classification = "yes (1)"

[[record]]
variantdescriptor = "D22V"
classification = "yes (1)"

[[record]]
variantdescriptor = "S9N"
classification = "yes (1)"

[[record]]
variantdescriptor = "S11L"
classification = "no (0)"

[[record]]
variantdescriptor = "E14K"
classification = "yes (1)"

[[record]]
variantdescriptor = "S12D"
classification = "yes (1)"

[[record]]
variantdescriptor = "D22N"
classification = "yes (1)"

[[record]]
variantdescriptor = "P7S"
classification = "yes (1)"

[[record]]
variantdescriptor = "N15E"
classification = "no (0)"

[[record]]
variantdescriptor = "S19M"
classification = "no (0)"

[[record]]
variantdescriptor = "E17Y"
classification = "yes (1)"

[[record]]
variantdescriptor = "N15R"
classification = "no (0)"

[[record]]
variantdescriptor = "D18W"
classification = "no (0)"

[[record]]
variantdescriptor = "S19H"
classification = "yes (1)"

[[record]]
variantdescriptor = "S9A"
classification = "yes (1)"

[[record]]
variantdescriptor = "F1W"
classification = "yes (1)"

[[record]]
variantdescriptor = "S6I"
classification = "yes (1)"

[[record]]
variantdescriptor = "S12K"
classification = "no (0)"

[[record]]
variantdescriptor = "S12G"
classification = "yes (1)"

[[record]]
variantdescriptor = "S6A"
classification = "yes (1)"

[[record]]
variantdescriptor = "P7G"
classification = "yes (1)"

[[record]]
variantdescriptor = "S23R"
classification = "no (0)"

[[record]]
variantdescriptor = "S19N"
classification = "yes (1)"

[[record]]
variantdescriptor = "V16T"
classification = "yes (1)"

[[record]]
variantdescriptor = "F8S"
classification = "yes (1)"

[[record]]
variantdescriptor = "S4E"
classification = "yes (1)"

[[record]]
variantdescriptor = "S19E"
classification = "no (0)"

[[record]]
variantdescriptor = "S3T"
classification = "no (0)"

[[record]]
variantdescriptor = "E17K"
classification = "no (0)"

[[record]]
variantdescriptor = "G20C"
classification = "yes (1)"

[[record]]
variantdescriptor = "F1E"
classification = "yes (1)"

[[record]]
variantdescriptor = "S3P"
classification = "yes (1)"

[[record]]
variantdescriptor = "E14D"
classification = "yes (1)"

[[record]]
variantdescriptor = "E17D"
classification = "no (0)"

[[record]]
variantdescriptor = "S9R"
classification = "no (0)"

[[record]]
variantdescriptor = "G20A"
classification = "no (0)"

[[record]]
variantdescriptor = "F1V"
classification = "yes (1)"

[[record]]
variantdescriptor = "P13K"
classification = "yes (1)"

[[record]]
variantdescriptor = "S19D"
classification = "no (0)"

[[record]]
variantdescriptor = "F8Q"
classification = "yes (1)"

[[record]]
variantdescriptor = "P13M"
classification = "no (0)"

[[record]]
variantdescriptor = "D22L"
classification = "yes (1)"

[[record]]
variantdescriptor = "P7K"
classification = "yes (1)"

[[record]]
variantdescriptor = "S3G"
classification = "no (0)"

[[record]]
variantdescriptor = "D18H"
classification = "yes (1)"

[[record]]
variantdescriptor = "S10R"
classification = "yes (1)"

[[record]]
variantdescriptor = "P5S"
classification = "yes (1)"

[[record]]
variantdescriptor = "P5L"
classification = "no (0)"

[[record]]
variantdescriptor = "F1S"
classification = "yes (1)"

[[record]]
variantdescriptor = "P13D"
classification = "yes (1)"

[[record]]
variantdescriptor = "D22K"
classification = "no (0)"

[[record]]
variantdescriptor = "E14N"
classification = "yes (1)"

